# Test system: OVCAR-4
# experimental protocol: NCI tumour cell line growth inhibition, 48 h
Active and inactive are the calls of the source. Rule as the data show it: active = GI50 up to about 1.1 µM and inactive = higher. Where a SMILES comes first, the peptide text is derived from it. The star is where a group is joined. Boc = CC(C)(C)OC(=O)*
Outcome codes: yes (active), no (inactive)

compound	discrete label
Cc1cc2c(cc1C)[n+]([O-])c(C(=O)/C=C/c1ccccc1Cl)c(C)[n+]2[O-]	no
COC(=O)c1ccccc1C1CN=NC12Cc1cccc(C)c1C2=O (stereo not drawn)	no
C[C@@H]1C[C@@H]2OC(=O)[C@]3(C)[C@H]2[C@@H](OC3(C)O)[C@]2(C)C(=O)C=C[C@@H]12 (stereo partly drawn)	no
COC(=O)C(Cc1c[nH]c2ccccc12)NC(=O)C(Cc1c[nH]c2ccccc12)NC(=O)C(Cc1c[nH]c2ccccc12)NC(=O)C(Cc1c[nH]c2ccccc12)NC(=O)C(Cc1c[nH]c2ccccc12)NC(=O)C(Cc1c[nH]c2ccccc12)NC(=O)C(Cc1c[nH]c2ccccc12)NC(=O)OC(C)(C)C (stereo not drawn) (Boc-WWWWWWW-OMe; configuration not given here)	no
COc1ccc2nc(-c3ccc(O)cc3)cc(O)c2c1	no
Nc1ncnn2c(C3OC(CO)C(O)C3O)ccc12 (stereo not drawn)	yes
COC(=O)c1c(OC(C)=O)ccc2c1c1cc3ccccc3c(OC(C)=O)c1n2C	no
C(CCCCc1nnc(N2CCOCC2)o1)CCCc1nnc(N2CCOCC2)o1	no
OC(c1ccccc1)C1CC2C=CC1C2 (stereo not drawn)	no
CC(C)NC(=O)OCCN=C1c2ccccc2C(Br)C(Br)c2ccccc21 (stereo not drawn)	no
CCOC(=O)c1nc2ccc(C(F)(F)F)cc2nc1Nc1ccc(F)cc1	no
O=C1CC(C[C@H](O)C2CCCCC2O)CC(=O)N1Cc1ccccc1 (stereo partly drawn)	no
COC(=O)C(CCSC)NC(=O)CNC(=O)CSc1nnc(COc2ccc(Cl)cc2)n1-c1ccccc1 (stereo not drawn)	no
O=C1/C(=C/c2ccc([N+](=O)[O-])cc2)CNC/C1=C\c1ccc([N+](=O)[O-])cc1	no
O=S(=O)(CCC[C@H]1[C@@H](CCOCc2ccccc2)C2CCCN1O2)c1ccccc1 (stereo partly drawn)	no
Cc1c(C#N)c2nnn(-c3ccccc3)c(=O)n2c1-c1ccccc1	no
CN(C)c1ccc(/C=N/c2nc3cc4sc(/N=C/c5ccc(N(C)C)cc5)nc4cc3s2)cc1	no
COc1cc2oc(-c3ccc(O)cc3O)c(CC=C(C)C)c(=O)c2c(O)c1/C=C/C(C)C	no

----------
# Test system: HT-29
# experimental protocol: NCI tumour cell line growth inhibition, 48 h
Counter-ions that a name gives are not always drawn. Active and inactive are the calls of the source. Rule as the data show it: active = GI50 up to about 1.1 µM and inactive = higher.
Labels: YES = active, NO = inactive

> print(dat)
                                    compound  experimental.system  discrete.label
 1  COc1cccc(NC(=O)/C(CS(=O)(=O)CCC(C(C)=O)C(C)=O)=N/NC(C)(C)C)c1                HT-29              NO
 2  Nc1ncnn2c(C3OC(CO)C(O)C3O)ccc12 (stereo not drawn)                HT-29             YES
 3  O=C1NC(=O)C2C(=O)NC(=O)C1C2Cc1ccco1 (stereo not drawn)                HT-29              NO
 4  CC(OC1CC(=O)CC2C(=O)C=CC(=O)C12)c1ccccc1 (stereo not drawn)                HT-29              NO
 5  CN(C)c1ccc(/C=N/c2nc3cc4sc(/N=C/c5ccc(N(C)C)cc5)nc4cc3s2)cc1                HT-29              NO
 6                c1ccc2c(c1)oc1ccc3nsnc3c12                HT-29              NO
 7  c1ccc(C2CC(c3ccc4ccccc4c3)=Nc3ccccc3S2)cc1 (stereo not drawn)                HT-29              NO
 8  COC(=O)c1c(OC(C)=O)ccc2c1c1cc3ccccc3c(OC(C)=O)c1n2C                HT-29              NO
 9  N#CC(c1ccccc1)N(CCc1ccccc1)C(=O)c1ccccc1 (stereo not drawn)                HT-29              NO
10  COC(=O)C1C2C=CC(C2)N1[C@@H](C)c1ccccc1 (stereo partly drawn)                HT-29              NO
11  O=C1CC(O)c2c(Br)sc(Br)c21 (stereo not drawn)                HT-29              NO
12  CN(C)CCOc1ccc(/C(=C(/CCCl)c2ccccc2)c2ccccc2)cc1 [TOREMIFENE CITRATE]                HT-29              NO
13  CCCS(=O)(=O)/C(=C(\c1ccc(Br)cc1)S(=O)(=O)CCC)c1ccc(Br)cc1                HT-29              NO

----------
# Test system: HOP-92
# experimental protocol: NCI tumour cell line growth inhibition, 48 h
Calls of active or inactive are those of the source. Cut-off read from the data, not from the text of the source: active = GI50 up to about 1.1 µM and inactive = higher.
Possible outcomes: active, inactive

> print(dat)
                                    compound  discrete.label
 1                 OC1=CN=C(C2CC2)Oc2ccccc21        inactive
 2     C/C(=N/c1[nH]c(=O)cc2c1C(=O)CC2)N(C)C        inactive
 3  OCC(O)C(O)C(C=NNc1ncnc2ccc(Br)cc12)=NNc1ncnc2ccc(Br)cc12 (stereo not given)        inactive
 4         CCOP(=O)(Nc1ccc(-c2ccccc2)cc1)OCC        inactive
 5  COc1cc(Br)c(/C=N\c2cccc3cc(OC)c(OC)cc23)cc1OC        inactive
 6  Cc1ccc(S(=O)(=O)N/N=c2\c(C)c(C3=NS(=O)(=O)c4cc(S(N)(=O)=O)c(Cl)cc4N3)oc3c(Cl)cc(Cl)cc23)cc1        inactive
 7  COc1cccc(NC(=O)/C(CS(=O)(=O)CCC(C(C)=O)C(C)=O)=N/NC(C)(C)C)c1        inactive
 8  COc1ccc2c3c1O[C@H]1C(=O)C=CC4(n5[nH]c(=O)n(-c6ccccc6)c5=O)C(C2)N(C)CCC314 (stereo not given in full)        inactive
 9  CN(C)c1ccc(/C=N/c2nc3cc4sc(/N=C/c5ccc(N(C)C)cc5)nc4cc3s2)cc1        inactive
10  COc1ccc(-n2c(SC(CN3CCOCC3)CN3CCCC3=O)nc3ccccc3c2=O)cc1 (stereo not given)        inactive
11  CCOC(=O)c1cccc(/N=N/c2ncc(/C=C/C(=O)OC)[nH]2)c1        inactive
12  O=C(c1ccc(Cl)cc1)N(C(=S)N1CCN(c2ccccc2)CC1)c1ccccc1        inactive
13  CC(Cl)(/C=C/Cl)C(Cl)/C=C/C(Cl)(CCl)CBr (stereo not given)        inactive
14  Nc1ncnn2c(C3OC(CO)C(O)C3O)ccc12 (stereo not given)          active
15  O=C1OC2CCCC[C@@H]2C2C[C@]34CCCCC3[C@@H](C(=O)O4)C12 (stereo not given in full)        inactive

----------
# Tested on: MDA-MB-231
# experimental protocol: NCI tumour cell line growth inhibition, 48 h
Structures can show the parent of a compound that is named as a salt. Activity calls are given as the source filed them. Cut-off read from the data, not from the text of the source: active = GI50 up to about 1.1 µM and inactive = higher.
// GI50 lookup, one value per entry
reported endpoint: GI50

> print(dat)
                                   molecule  experimental.system  reported.endpoint       value.observed
1  CN(C)CCOc1ccc(/C(=C(/CCCl)c2ccccc2)c2ccccc2)cc1 [TOREMIFENE CITRATE]           MDA-MB-231               GI50   16.4 µM (inactive)
2  CCOC(=O)c1nc2ccc(C(F)(F)F)cc2nc1Nc1ccc(F)cc1           MDA-MB-231               GI50   > 10 µM (inactive)
3  COc1ccc(C(C)NNC(=O)c2cc[n+]([BH2-]C#N)cc2)cc1F (stereo not drawn)           MDA-MB-231               GI50  > 100 µM (inactive)

----------
# Test system: MDA-N
# experimental protocol: NCI tumour cell line growth inhibition, 48 h
The source made the active and inactive calls. Cut-off read from the data, not from the text of the source: active = GI50 up to about 1.1 µM and inactive = higher.
Possible outcomes: active, inactive

> print(dat)
                                    molecule  discrete.label
 1                 c1csc(-c2ccsc2-c2cccs2)c1        inactive
 2  CCC/C=C/C=C/C(=O)OC1C(C)C2(O)C3C=C(C)C(=O)C3CC(COC(C)=O)=CC2C2C(C)(C)C12OC(=O)C(C)C (stereo not given)          active
 3  N=C(N)c1ccc(C(NC(=O)CNS(=O)(=O)c2ccc3ccccc3c2)P(=O)(Oc2ccccc2)Oc2ccccc2)cc1 (stereo not given)        inactive
 4  COc1cc(C2CC(C)(Nc3ccccc3)Oc3cc4c(cc32)OCO4)cc(OC)c1OC (stereo not given)          active
 5  O=c1[nH]c(=O)n(C2CC(O)C(CO)O2)cc1Oc1ccccc1 (stereo not given)        inactive
 6                        O=C(O)c1nn[nH]c1Cl        inactive
 7             CN1CCN(c2cc3nsnc3c3nsnc23)CC1        inactive
 8          Cc1nnc(N)nc1/C=C\c1ccc(N(C)C)cc1        inactive
 9  Cc1cn(C2CC(O)C(Cn3nncc3Cn3nc(Br)c(=O)[nH]c3=O)O2)c(=O)[nH]c1=O (stereo not given)        inactive
10  O=S(=O)(CCC[C@H]1[C@@H](CCOCc2ccccc2)C2CCCN1O2)c1ccccc1 (stereo not given in full)        inactive
11  Cc1cc(=O)oc2cc3oc(N(C)c4ccccc4)nc(=O)c3cc12        inactive
12  CS/C(=N\S(=O)(=O)c1ccc(Cl)cc1)NCCCCN/C(=N/S(=O)(=O)c1ccc(Cl)cc1)SC        inactive
13                Cc1csc2nc3c(cnn3C)c(=S)n12        inactive
14  COC(=O)c1c(OC(C)=O)ccc2c1c1cc3ccccc3c(OC(C)=O)c1n2C        inactive
15  COc1ccc([C@H]2CC(=O)C[C@H](c3ccc(OC)cc3)C23C(=O)c2ccccc2C3=O)cc1        inactive
16  COC(=O)C(CCSC)NC(=O)CNC(=O)CSc1nnc(COc2ccc(Cl)cc2)n1-c1ccccc1 (stereo not given)        inactive
17                       CC(=O)CC[N+](C)(C)C        inactive
18  Cc1ccc(C(=O)c2[nH]c(NCc3ccccc3)c(C(=S)Nc3ccccc3)c2N)cc1        inactive
19  CCN(CC)CCO/N=C1/C=C2CCC3C(CC[C@@]4(C)C3CC[C@]4(C)O)[C@@]2(C)CC1 (stereo not given in full)        inactive
20  COC(=O)c1cc(S(=O)(=O)NC2=NNC(C)CN2)c(S)cc1Cl (stereo not given)        inactive
